# key: entry, value: protein stability index
B1: DLC1 (parent)
chain: HVTHWMGQPFNSDDRNTACHHGLV

# Variants of: B1
# TEST DESCRIPTION: protein stability index of a GFP-peptide fusion (GPS, HEK-293T) (PSI 1-6); higher = more stable;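 also: lentivirally expressed fusions sorted by FACS into six bins by GFP to DsRed ratio, PSI derived from sequencing read proportions per bin multiplied by bin number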
# SETUP CONDITIONS: c terminus: a fixed tail appended
Just the number, please, no unit after it.

Some variants with recorded protein stability index:
N16K; 1.98
F10L; 2.01
G22N; 1.99
P9L; 2
G22K; 2

// protein stability index value for G7C : 2.02
